assayExplanation: chemical genetic growth profiling, strain panel (AID 1159580);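 note: tested at 20 µM; growth read once vehicle control cultures reached saturation at 30 °C; 1 = growth at the plate median or of vehicle wells; lower values mean less growth of the strain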
testConditions: S. cerevisiae deletion strains, growth OD, locus YNR049C, strain mso1, hits give low values
About 2,000 (36%) of roughly 5,500 compounds were called active. About 18% were inconclusive and are not listed. This is one part of the list.

{"compound": "O=c1[nH]c2ccccc2n1C1CCN(CCCC(c2ccc(F)cc2)c2ccc(F)cc2)CC1", "normalized growth": 0.991}
{"compound": "O=c1[nH]c2ccccc2n1CCCN1CCC(n2c(=O)[nH]c3cc(Cl)ccc32)CC1", "normalized growth": 0.983}
{"compound": "O=C(CCCN1CC=C(n2c(=O)[nH]c3ccccc32)CC1)c1ccc(F)cc1", "normalized growth": 0.972}
{"compound": "NCCS", "normalized growth": 0.972}
{"compound": "CC(=O)N[C@@H](CC(=O)O)C(=O)O", "normalized growth": 0.996}
{"compound": "C[N+]1(C)CCc2cc3c(cc2[C@H]1C1OC(=O)c2c1ccc1c2OCO1)OCO3 (stereo partly specified)", "normalized growth": 1.01}

====

assayExplanation: chemical genetic growth profiling, strain panel (AID 1159580);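 note: tested at 20 µM; growth read once vehicle control cultures reached saturation at 30 °C; 1 = growth at the plate median or of vehicle wells; lower values mean less growth of the strain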
testConditions: S. cerevisiae deletion strains, growth OD, locus YER155C, strain BEM2, hits give low values
In all, about 5,500 compounds went through this assay and about 2,000 (36%) were called active. Inconclusive results (about 18%) are left out. This is one part of the list.
Below, each entry is listed alongside its reported normalized growth.

{"compound": "COc1cc2ccc(=O)oc2cc1O", "normalized growth": 1}
{"compound": "OCCN1CCN(CCCN2c3ccccc3Sc3ccc(Cl)cc32)CC1", "normalized growth": 1.03}
{"compound": "CC(=O)N[C@@H](CC(=O)O)C(=O)O", "normalized growth": 1.01}
{"compound": "CC(C)=CCc1c(O)cc2occ(-c3ccc4c(c3)OCO4)c(=O)c2c1O", "normalized growth": 1.01}
{"compound": "N#Cc1ccc2c(c1)N(CCCN1CCC(O)CC1)c1ccccc1S2", "normalized growth": 1}
{"compound": "CNC(=O)CSP(=S)(OC)OC", "normalized growth": 1.01}
{"compound": "Cn1c(=O)[nH]c(=O)c2[nH]cnc21", "normalized growth": 0.989}
{"compound": "CC(=O)O[C@@H]1CC2C(C)(C)C(=O)[C@@H]3O[C@@H]3[C@]2(C)C2CC[C@]3(C)C(=CC(=O)O[C@H]3c3ccoc3)[C@@]21C (some centres undefined)", "normalized growth": 0.998}
{"compound": "CCOc1ccc(Cc2nccc3cc(OCC)c(OCC)cc23)cc1OCC", "normalized growth": 0.99}
{"compound": "COP(=S)(OC)SCn1nnc2ccccc2c1=O", "normalized growth": 0.993}
{"compound": "CC(=O)Oc1ccc2c(c1)CCC1C2CC[C@@]2(C)C1CC[C@@H]2OC(C)=O (some centres undefined)", "normalized growth": 0.973}
{"compound": "COc1c(O)cc(O)cc1O", "normalized growth": 0.989}
{"compound": "COc1cc2ccc(=O)oc2c(OC)c1OC", "normalized growth": 1}
{"compound": "CC1=C2CCC3C(CC[C@]4(C)C(=O)CCC34)[C@@]2(C)CCC1=O (some centres undefined)", "normalized growth": 0.997}
{"compound": "C[N+]1(C)C2CC[C@H]1CC(OC(=O)C(O)c1ccccc1)C2 (some centres undefined)", "normalized growth": 0.988}
{"compound": "COC(=O)C1=CO[C@@H](O[C@@H]2O[C@H](CO)[C@@H](O)[C@H](O)[C@H]2O)[C@@H]2[C@@H](C)[C@@H](O)C[C@H]12", "normalized growth": 0.997}
{"compound": "COc1cc2ccc(=O)oc2c2ccoc12", "normalized growth": 1.02}
{"compound": "CC(C)=CCC1=C(O)c2ccccc2C(=O)C1=O", "normalized growth": 0.962}
{"compound": "COc1c2c(cc3occ(-c4ccc5c(c4)OCO5)c(=O)c13)OC(C)(C)C=C2", "normalized growth": 0.992}
{"compound": "COc1ccc2ccc(=O)oc2c1CC=C(C)C", "normalized growth": 0.657}
{"compound": "Cc1c(N(C)CS(=O)(=O)O)c(=O)n(-c2ccccc2)n1C", "normalized growth": 0.992}
{"compound": "COc1cc(OC)cc(OC)c1", "normalized growth": 1.01}
{"compound": "C[C@]12CCC3C(CC[C@H]4CC(=O)CC[C@]34C)C1CCC2=O (some centres undefined)", "normalized growth": 1.04}
{"compound": "COc1cc(O)c(C(C)=O)c(OC)c1", "normalized growth": 1.01}
{"compound": "NCCS", "normalized growth": 1.01}
{"compound": "C[C@]12CCC3C(CC[C@H]4C[C@@H](O)CC[C@]34C)C1CCC2=O (some centres undefined)", "normalized growth": 0.856}
{"compound": "C[C@]12C=CC(=O)C=C1CCC1C2CC[C@]2(C)C(=O)CCC12 (some centres undefined)", "normalized growth": 0.979}
{"compound": "COc1ccc(Cc2nccc3cc(OC)c(OC)cc23)cc1OC", "normalized growth": 1.01}
{"compound": "COc1cc(OC)c(-c2c(OC)cc(OC)cc2OC)c(OC)c1", "normalized growth": 1.01}

====

assayExplanation: chemical genetic growth profiling, strain panel (AID 1159580);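 note: tested at 20 µM; growth read once vehicle control cultures reached saturation at 30 °C; 1 = growth at the plate median or of vehicle wells; lower values mean less growth of the strain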
testConditions: S. cerevisiae deletion strains, growth OD, locus YDR150W, strain NUM1
Screen size: about 5,500 compounds; about 2,000 (36%) were called active. About 18% were inconclusive and are not listed. Rule as the data show it: active = normalized growth mostly below about 0.91 (no sharp cut-off); inconclusive = no clear call, values can overlap the other calls; inactive = mostly above about 0.92. The list shows a part of the results.
Labels: yes (active), no (inactive)

{"compound": "CN1Cc2c(N)cccc2C(c2ccccc2)C1 (stereo not drawn)", "qualitativeLabel": "no"}
{"compound": "CCn1cc([N+](=O)[O-])nc1C", "qualitativeLabel": "no"}
{"compound": "CC(C)(C)c1cc(C(C)(C)C)n(-c2ccc([N+](=O)[O-])cc2)n1", "qualitativeLabel": "no"}
{"compound": "C[N+](C)(C)CC#CCN1CCCC1=O", "qualitativeLabel": "no"}
{"compound": "NC(N)=Nc1ccc2[nH]c3c(c2c1)C[C@@]1(O)[C@H]2Cc4ccc(O)c5c4[C@@]1(CCN2CC1CC1)[C@H]3O5", "qualitativeLabel": "no"}
{"compound": "Cc1cc(C)nc(NS(=O)(=O)c2ccc(N)cc2)n1", "qualitativeLabel": "no"}
{"compound": "COC(=O)c1cc2c(cn1)[nH]c1ccccc12", "qualitativeLabel": "no"}
{"compound": "CC(N)=NCc1cccc(CN)c1", "qualitativeLabel": "no"}
{"compound": "CC(C)=CCC1=C(O)c2ccccc2C(=O)C1=O", "qualitativeLabel": "no"}
{"compound": "COc1ccccc1N=C1SCC(=O)N1Cc1ccco1", "qualitativeLabel": "no"}
{"compound": "COC1(C2=NCCN2)COc2ccccc2O1 (stereo not drawn)", "qualitativeLabel": "no"}
{"compound": "CCNc1nc(Cl)nc(NC(C)C)n1", "qualitativeLabel": "no"}
{"compound": "N#C/C(=C\\c1ccc(O)cc1)C(=O)O", "qualitativeLabel": "no"}
{"compound": "CSC(=Nc1ccc(C(C)C)cc1)NC#N", "qualitativeLabel": "no"}
{"compound": "Cc1ccc(S(=O)(=O)/C(C#N)=N\\O)cc1", "qualitativeLabel": "no"}
{"compound": "CCCc1cc(C(=O)Nc2ccc(N(CC)CC)cc2)nn1-c1ccccc1", "qualitativeLabel": "no"}
{"compound": "O=C(O)c1cc2cc(Cl)ccc2[nH]1", "qualitativeLabel": "no"}
{"compound": "COc1ccc(/C(C)=N\\NC2=NCCCN2)cc1", "qualitativeLabel": "no"}
{"compound": "N#C/C(=N/Nc1ccc(C(F)(F)F)cc1)C(=O)C1CC1", "qualitativeLabel": "no"}
{"compound": "CCOC(=O)CC1=Nn2c(nnc2-c2cc(Cl)cc(Cl)c2)SC1", "qualitativeLabel": "no"}
{"compound": "O=C(O)C12CC3CC(CC(Br)(C3)C1)C2", "qualitativeLabel": "no"}
{"compound": "CC(=O)N[C@@H](CC(=O)O)C(=O)O", "qualitativeLabel": "no"}
{"compound": "Nc1ncnc2c1ncn2[C@@H]1O[C@H](CO)[C@@H](O)[C@@H]1O", "qualitativeLabel": "no"}
{"compound": "CSc1sc(-c2ccn[nH]2)c(-c2ccccc2)c1C#N", "qualitativeLabel": "no"}
{"compound": "Cc1c2ccncc2c(C)c2c1[nH]c1ccccc12", "qualitativeLabel": "yes"}
{"compound": "COc1cc(O)c(C(=O)O)c(O)c1", "qualitativeLabel": "no"}
{"compound": "CC(=O)/C(=C\\N(C)C)Sc1ccc(Cl)cc1", "qualitativeLabel": "no"}
{"compound": "CC(=O)c1csc([N+](=O)[O-])c1", "qualitativeLabel": "no"}
